test system: HEK-293T; assay: Multiplex assay against HEK293T; type: toxicity, cell-based; conditions: human, 48 h, 10 µM, compound concentration 10 uM, replicate 2
Reported Metric: Population Normal (%)
Entry rule: numbers only, all in %.

Completed entries (count: 6):
| Compound | Scale Unit | Reported |
| --- | --- | --- |
| CN1C[C@H](C(=O)N[C@]2(C)O[C@@]3(O)[C@@H]4CCCN4C(=O)[C@H](Cc4ccccc4)N3C2=O)C[C@@H]2c3cccc4[nH]cc(c34)C[C@H]21.CS(=O)(=O)O [DIHYDROERGOTAMINE MESYLATE] | % | 98 |
| COCCCN1CCC(NC(=O)c2cc(Cl)c(N)c3c2OCC3)CC1 [PRUCALOPRIDE] | % | 96 |
| C=CCN1C[C@H](C(=O)N(CCCN(C)C)C(=O)NCC)C[C@@H]2c3cccc4[nH]cc(c34)C[C@H]21 [CABERGOLINE] | % | 93 |
| N[C@](CC1c2ccccc2Oc2ccccc21)(C(=O)O)[C@H]1C[C@@H]1C(=O)O | % | 95 |
| COc1cc(C(=O)N2CC[C@@H](O)[C@@H](N)C2)cc2nc(-c3cc4ccccc4n3CC3CC3)n(C)c12.Cl | % | 76 |
| O=C(O)CCC/C=C\CC1C(O)CC(O)C1/C=C/C(O)COc1cccc(Cl)c1 (configuration not stated) [CLOPROSTENOL] | % | 93 |

Now for a further compound.
Form field - read-out: Population Normal (%); system: HEK-293T; submitted item: CCCCCCNC(=O)Nc1ccc(S(=O)(=O)Nc2ccc(CCNC[C@H](O)COc3ccc(O)cc3)cc2)cc1 [L-755507] 91

###

tested on: Fibroblast; assay: Multiplex assay against human fibroblast; format: toxicity, cell-based; conditions: 12 h, 1 µM, compound concentration 1 uM, replicate 1
Reported Metric: Population Normal (%)
Report the value in % with no unit label.

| Compound | Test Target | Population Normal (%) |
| --- | --- | --- |
| CN1CCN(c2ccc(Nc3c4ccccc4nc4ccccc34)cc2)CC1.Cl.Cl.O | Fibroblast | 98 |

With those in mind, consider the next compound.
Record request: Population Normal (%) value, item CSc1nc(NC2CCCC2)c([N+](=O)[O-])c(NC2CCCC2)n1 96

###

tested on: Fibroblast; experiment: Multiplex assay against human fibroblast; assay type: toxicity, cell-based; settings: 48 h, 10 µM, compound concentration 10 uM, replicate 1
Use Y when the recorded Population Membrane Permeable-Phenotype (%) is no lower than 1%; use N when it is lower.

Solved cases below.
| Compound | Class |
| --- | --- |
| O=c1ccc2ccc(OCCCCN3CCN(c4cccc5sccc45)CC3)cc2[nH]1 [BREXPIPRAZOLE] | N |
| CC(C)(C)c1ccc(CSc2cnn(C(C)(C)C)c(=O)c2Cl)cc1 [PYRIDABEN] | N |
| Nc1nc(-c2ccco2)c2cnn(Cc3ccccc3F)c2n1 | N |
| CC(C)(O)C(=O)N1CCN(c2ccc(C(F)(F)F)c(C3=C(c4c[nH]c5ccccc45)C(=O)NC3=O)c2)CC1 | N |
| CCn1c(-c2nc3cc(C(=O)N4CCCC(N)C4)ccc3n2C)cc2ccccc21.Cl (configuration not stated) | N |
| CN1CCN(c2ccc(Nc3c4ccccc4nc4ccccc34)cc2)CC1.Cl.Cl.O | Y |

Say whether OCCCNc1cc(-c2ccnc(Nc3cccc(Cl)c3)n2)ccn1 shows Population Membrane Permeable-Phenotype (%) of 1% or more. Y

// inclusive: Population Membrane Permeable-Phenotype (%) at least 1%? input: Cn1cc(C(=O)OCC2CCN(CCNS(C)(=O)=O)CC2)c2ccccc21 N

Does Cc1c(Cc2ccc3ccccc3n2)c2cc(F)ccc2n1CC(=O)O [TIMAPIPRANT] have a reported Population Membrane Permeable-Phenotype (%) of at least 1%? N

###

tested on: U2OS; assay: Multiplex assay against U2OS; type: toxicity, cell-based; settings: human, 24 h, 10 µM, compound concentration 10 uM, replicate 2
Reported Population Hoechst High Intensity Objects (%) values for a set of compounds
Record the value in %, omitting the unit from your answer.

The following compounds have reported results that may help.
| Compound | Scale Unit | Reported |
| --- | --- | --- |
| CN1CCC(C(=O)c2cccc(NC(=O)c3c(F)cc(F)cc3F)n2)CC1 | % | 5 |
| CCn1c(-c2nc3cc(C(=O)N4CCCC(N)C4)ccc3n2C)cc2ccccc21.Cl (stereo not drawn) | % | 3 |

Give the measured Population Hoechst High Intensity Objects (%) of COc1ccc2c(c1OCc1ccccc1)C[C@@H](C(=O)O)N(C(=O)C(c1ccccc1)c1ccccc1)C2 . 0

###

test system: U2OS; test: Multiplex assay against U2OS; assay type: toxicity, cell-based; settings: human, 48 h, 10 µM, compound concentration 10 uM, replicate 1
Reported Metric: Population Normal (%)
Form entry: value (%) — number only.

These solved cases illustrate the format of a correct answer.
| Molecule | Test Target | Scale Unit | Population Normal (%) |
| --- | --- | --- | --- |
| CN(C)C(=O)Cn1cc(-c2ccc(-c3nnc4ccccn34)cc2)cn1 | U2OS | % | 96 |
| O=c1nc2[nH]c3ccccc3nc-2c(=O)[nH]1 | U2OS | % | 98 |
| OCCCNc1cc(-c2ccnc(Nc3cccc(Cl)c3)n2)ccn1 | U2OS | % | 78 |
| COc1c(Nc2ccc(S(C)(=O)=O)nc2C)ncnc1OC1CCN(C(=O)OC(C)C)CC1 | U2OS | % | 93 |

Request the reported Population Normal (%) associated with O=c1ccc2ccc(OCCCCN3CCN(c4cccc5sccc45)CC3)cc2[nH]1 73

Tell me the measured Population Normal (%) of CCCCC[C@H](O)/C=C/[C@H]1[C@H](O)CC(=O)[C@@H]1CCCCCCC(=O)O , please. 99

Data request, read-out Population Normal (%), for CCC(=O)OCC(=O)[C@@]1(OC(=O)CC)[C@@H](C)C[C@H]2[C@@H]3CCC4=CC(=O)C=C[C@]4(C)[C@@]3(Cl)[C@@H](O)C[C@@]21C [BECLOMETHASONE DIPROPIONATE] 95

Record request: Population Normal (%) value, item Cc1cc(O)c(-c2ccc([C@@H](C)CN(C)C)cc2)c2c1[nH]c(=O)c1sccc12 79

Could you share which Population Normal (%) value was measured for O=C(Nc1cc(-c2ccccc2)nn1-c1ccccc1F)c1ccc([N+](=O)[O-])cc1 ? 97

Tell me the measured Population Normal (%) of CC(C)(O)C(=O)N1CCN(c2ccc(C(F)(F)F)c(C3=C(c4c[nH]c5ccccc45)C(=O)NC3=O)c2)CC1 , please. 85

Which value of Population Normal (%) has been reported for CC(C)C[C@H](CO)Nc1nc(S[C@@H](C)c2ccccc2)nc2nc(N)sc12 in the records? 95

###

tested on: HEK-293T; assay: Multiplex assay against HEK293T; assay type: toxicity, cell-based; details: human, 48 h, 1 µM, compound concentration 1 uM, replicate 1
Reported Population Fragmented Nuclei (%) is given for each of the following compounds.
Dear colleague, please return just the value in %, with no unit written.

Observe how each entry below is paired with its result.
| Compound | Scale Unit | Population Fragmented Nuclei (%) |
| --- | --- | --- |
| COCCCN1CCC(NC(=O)c2cc(Cl)c(N)c3c2OCC3)CC1 [PRUCALOPRIDE] | % | 15 |
| C=CCN1C[C@H](C(=O)N(CCCN(C)C)C(=O)NCC)C[C@@H]2c3cccc4[nH]cc(c34)C[C@H]21 [CABERGOLINE] | % | 12 |

Form field: reported Population Fragmented Nuclei (%) of Cn1cc(C(=O)OCC2CCN(CCNS(C)(=O)=O)CC2)c2ccccc21 12

So what does the record say about Population Fragmented Nuclei (%) for Cc1sc2c(c1C)C(c1ccc(Cl)cc1)=N[C@H](CC(=O)OC(C)(C)C)c1nnc(C)n1-2 ? 11

Quick one: Population Fragmented Nuclei (%) of CSc1nc(NC2CCCC2)c([N+](=O)[O-])c(NC2CCCC2)n1 [GS-39783] ? 15

Name the recorded Population Fragmented Nuclei (%) for CC(C)(O)C(=O)N1CCN(c2ccc(C(F)(F)F)c(C3=C(c4c[nH]c5ccccc45)C(=O)NC3=O)c2)CC1 . 9

Fill in the blank: the reported Population Fragmented Nuclei (%) of CN1C[C@H](C(=O)N[C@]2(C)O[C@@]3(O)[C@@H]4CCCN4C(=O)[C@H](Cc4ccccc4)N3C2=O)C[C@@H]2c3cccc4[nH]cc(c34)C[C@H]21.CS(=O)(=O)O [DIHYDROERGOTAMINE MESYLATE] is ____. 14

###

system: HEK-293T; test: Multiplex assay against HEK293T; format: toxicity, cell-based; conditions: human, 12 h, 1 µM, compound concentration 1 uM, replicate 2
Reported Metric: Population Normal (%)
Provide only the numeric value, understood in %.

# returns recorded Population Normal (%) (system: HEK-293T) for CN(C)C(=O)Cn1cc(-c2ccc(-c3nnc4ccccn34)cc2)cn1 89

Item N[C@](CC1c2ccccc2Oc2ccccc21)(C(=O)O)[C@H]1C[C@@H]1C(=O)O with HEK-293T - Population Normal (%)? 94

I'm curious: which Population Normal (%) was measured for O=c1nc2[nH]c3ccccc3nc-2c(=O)[nH]1 tested on HEK-293T? 92

Short answer please: Population Normal (%), HEK-293T, entry C[C@H](NC(=O)CNC(=O)c1cccc(Cl)c1)c1ccccc1 95

Look up Population Normal (%) with HEK-293T for this molecule: CCn1c(-c2nc3cc(C(=O)N4CCCC(N)C4)ccc3n2C)cc2ccccc21.Cl (stereo not given) 93

Give recorded Population Normal (%) with HEK-293T for the following molecule: CN1CCN(c2ccc(Nc3c4ccccc4nc4ccccc34)cc2)CC1.Cl.Cl.O 98

Recall the recorded Population Normal (%) for Cn1cc(C(=O)OCC2CCN(CCNS(C)(=O)=O)CC2)c2ccccc21 with HEK-293T and state it. 91

Request: Population Normal (%), test system HEK-293T, entry COc1cc(Nc2ncc3c(n2)-c2ccc(Cl)cc2C(c2c(F)cccc2OC)=NC3)ccc1C(=O)O 93

Look up Population Normal (%) with HEK-293T for this molecule: COCCCN1CCC(NC(=O)c2cc(Cl)c(N)c3c2OCC3)CC1 [PRUCALOPRIDE] 92

Field: Population Normal (%) (HEK-293T). Entry: Cc1nn(C)c2nc(NNC(=O)Nc3cc(Cl)nc(Cl)c3)cc(C(C)C)c12 97
